# System: Saccharomyces cerevisiae;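 also: PSI is a weighted mean of sequencing reads over stability bins, variants kept only with over 10 reads, mCherry proximal and sfGFP distal, peptide attached via GGGS linker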
# Assay overview: protein stability index of tFT-peptide fusion (C-terminal peptide) (PSI (0-1 scale)); higher = more stable (slower turnover)
# Experimental parameters: genetic background: cdc53-1; temperature: 37 C
So basically: protein stability index at 0.6 or higher? That is Met. Lower than 0.6? That is Not met.

Use these answered entries as a reference point.
[
  {
    "Construct sequence": "VPASWLRMLAFC",
    "Label class": "Not met"
  },
  {
    "Construct sequence": "LPPPTPRSVLLN",
    "Label class": "Met"
  },
  {
    "Construct sequence": "SRKRIVALMLSG",
    "Label class": "Met"
  },
  {
    "Construct sequence": "VGFCICISIMSF",
    "Label class": "Not met"
  },
  {
    "Construct sequence": "DNLYSLEFMAIR",
    "Label class": "Met"
  }
]

Ask: Determine whether measured protein stability index meets or exceeds 0.6 for "FFRAYLQMYVTD"
Reply: Not met

Ask: Could you do the same for "GQLIYQHIFILG" , please?
Reply: Met

Ask: Input "SRNSSRYLLLVS"
Reply: Not met

Ask: Same again, this time with "IKKKKRKKIKAN"
Reply: Met

Ask: Follow-up entry: "FRILVGCRVVLM"
Reply: Not met

Ask: Follow-up entry: "VLVVVRSLSFLS"
Reply: Not met

Ask: Then what about the sequence "VFYWVGVLCGWG" ?
Reply: Not met
